src = the supplement of paper PMC10567573

B1: VPS39 (parent)
chain: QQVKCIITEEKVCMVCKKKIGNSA

variants of: B1; experiment: protein stability index of a GFP-peptide fusion (GPS, HEK-293T) (PSI 1-6); higher = more stable; conditions: c terminus: a fixed tail appended;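 note: lentivirally expressed fusions sorted by FACS into six bins by GFP to DsRed ratio, PSI derived from sequencing read proportions per bin multiplied by bin number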
VALUE KIND: protein stability index

- I6V: 3.05
- A24T: 2.93
- K17N: 3.05
- Q2A: 2.94
- C13M: 2.98
- C16L: 3.07
- I7F: 2.97
- V15K: 3.05
